# tested.target: Pro-neuregulin-1, membrane-bound isoform (Homo sapiens) (UniProt Q02297)
# Sequence (Q02297 whole entry, looked up, canonical isoform): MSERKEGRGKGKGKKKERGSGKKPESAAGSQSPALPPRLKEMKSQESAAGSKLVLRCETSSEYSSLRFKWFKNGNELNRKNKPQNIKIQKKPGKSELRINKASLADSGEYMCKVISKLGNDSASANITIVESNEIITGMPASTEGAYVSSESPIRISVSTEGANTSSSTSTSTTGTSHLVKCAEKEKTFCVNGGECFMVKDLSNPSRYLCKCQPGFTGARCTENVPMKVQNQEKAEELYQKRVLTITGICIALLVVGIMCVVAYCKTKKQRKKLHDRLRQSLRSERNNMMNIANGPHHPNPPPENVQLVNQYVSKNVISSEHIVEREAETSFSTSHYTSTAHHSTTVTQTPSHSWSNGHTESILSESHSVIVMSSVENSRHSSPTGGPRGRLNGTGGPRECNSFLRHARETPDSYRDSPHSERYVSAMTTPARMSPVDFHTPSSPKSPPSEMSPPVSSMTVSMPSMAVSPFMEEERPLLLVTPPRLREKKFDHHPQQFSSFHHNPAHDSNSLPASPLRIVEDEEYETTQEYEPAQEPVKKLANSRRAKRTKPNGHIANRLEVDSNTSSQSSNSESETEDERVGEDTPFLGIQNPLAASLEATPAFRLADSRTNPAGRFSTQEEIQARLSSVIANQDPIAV
# test: NRG1 binders on small-molecule microarrays, primary screen, psychiatric disease protein project, biochemical, small-molecule microarray, fluorescence 635/667 (AID 1075);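 also: score combines 667 nm spot fluorescence with signal to noise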
# measurement.setup: NRG1 binding, 635 nm fluorescence, higher = more signal
Listed below: composite z-score values for each entry.
assay.endpoint: composite z-score

INSERT INTO assay_data (cpd_smiles, assay_endpoint, readout_number) VALUES
  ('O=C1[C@H]2[C@H]3[C@H](O)[C@H](O)CC(=NO[C@@H]4O[C@H](CO)[C@@H](O)[C@H](O)[C@H]4O)[C@H]3CC[C@H]2C(=O)N1c1ccc(F)cc1F', 'composite z-score', -0.557),
  ('O=C1[C@H]2[C@H]3[C@H](O)[C@H](O)CC(=NOCc4ccccc4)[C@@H]3CC[C@H]2C(=O)N1c1cccc(Oc2ccccc2)c1', 'composite z-score', 1.48),
  ('CCN1C(=O)[C@H]2[C@H]3[C@H](O)[C@H](O)CC(=NO[C@H](C)c4cn([C@@H]5COC[C@H]5O)nn4)[C@@H]3CC[C@H]2C1=O', 'composite z-score', -0.455);

---

# Tested on: Chordin-like protein 2 (CHRDL2)
# test: CHRDL2 small-molecule binders, primary screen, biochemical, small-molecule microarray, 635 nm fluorescence (AID 1126);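 also: printed compound slides probed with Chrdl2 protein at 4 µg/mL for 1 h at 4 C; score merges 667 nm emission intensity with signal to noise over three replicate slides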
# measurement.setup: small-molecule microarray binding, fluorescence 635 nm; higher = more signal
Listed below: composite z-score values for each entry.
assay.endpoint: composite z-score

INSERT INTO assay_data (compound, readout_number) VALUES
  ('CCOC(=O)[C@H](CC(C)C)NC(=O)CCC1CC(OC(=O)NCc2ccc3c(c2)OCO3)CC2(CCCC(COC(=O)NCCc3ccc(Cl)cc3)O2)O1 (some centres not stated)', 0.359),
  ('CC(C)CON=C1C[C@@H](O)[C@@H](O)[C@@H]2[C@@H]3C(=O)N([C@@H](C)c4ccccc4)C(=O)[C@@H]3CC[C@@H]12', 0.417),
  ('O=C1C[C@H](c2ccccc2)[C@H](c2ccc(Br)cc2)O1', 0.143),
  ('CC(C)=CCCC(C)=CCON=C1C[C@@H](O)[C@@H](O)[C@@H]2[C@@H]3C(=O)N(c4cccc(Oc5ccccc5)c4)C(=O)[C@@H]3CC[C@H]12', 0.492),
  ('COC(=O)CC=C[C@@H](C)[C@@H](C=NOC[C@@H](O)COCc1ccco1)NS(=O)(=O)c1ccc(C)cc1', 1.52),
  ('CCN1C(=O)[C@H]2[C@H]3[C@H](O)[C@H](O)CC(=NO[C@H](C)c4cn([C@H](CO)Cc5ccccc5)nn4)[C@@H]3CC[C@H]2C1=O', -0.0064),
  ('COC(=O)[C@H](C)NC(=O)CCC1CC(OC(=O)NCc2cccc3ccccc23)CC2(CCCC(COC(=O)NCCC(C)C)O2)O1 (some centres not stated)', 0.229);

---

Listed below: composite z-score values for each entry.
# test: anti-His antibody binders, primary screen, artefact control for SMM control protein annotation, biochemical, small-molecule microarray, 635 nm fluorescence (AID 1128);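 also: score merges feature fluorescence with signal-to-noise for each printed compound spot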
# measurement.setup: anti-His Alexa647 antibody binding, higher = more signal
assay.endpoint: composite z-score

INSERT INTO assay_data (molecule, result) VALUES
  ('CCOC(=O)[C@H](Cc1ccccc1)NC(=O)CCC1CC(OC(=O)NCCc2ccc(F)cc2)CC2(CCCC(COC(=O)NCCC(C)C)O2)O1 (stereo not given in full)', 1.05),
  ('CC(=O)OC[C@H]1O[C@H](CC=NOC[C@@H](O)[C@H]2O[C@@H]3OC(C)(C)O[C@@H]3[C@H]2O)C=C[C@@H]1OC(C)=O', 0.638),
  ('CCN1C(=O)[C@H]2[C@H]3[C@H](O)[C@H](O)CC(=NO[C@H](C)c4cn([C@H](CO)Cc5ccccc5)nn4)[C@@H]3CC[C@H]2C1=O', 3.76),
  ('CO[C@H]1COC(=O)CCC[C@H](C)[C@H](OC)COC(=O)CC=C[C@@H]1C', 1.03),
  ('COC(=O)CC=C[C@@H](C)[C@@H](C=NOC(C)CN1CCCCc2nc(C)c(C)cc21)NS(=O)(=O)c1ccc(C)cc1 (stereo not given in full)', 0.0454),
  ('C=CCOCC1CN2[C@@H](CC[C@@H](C)[C@@H]2c2ccc(Br)cc2)C(=O)O1 (stereo not given in full)', 0.24),
  ('CCOC(=O)[C@H](CC(C)C)NC(=O)CCC1CC(OC(=O)NCCc2ccc(F)cc2)CC2(CCCC(COC(=O)NCCOC)O2)O1 (stereo not given in full)', 0.917),
  ('CCOC(=O)[C@H](CC(C)C)NC(=O)CCC1CC(OC(=O)NCc2ccc3c(c2)OCO3)CC2(CCCC(COC(=O)NCCc3ccccc3OC)O2)O1 (stereo not given in full)', 0.746),
  ('CC(=O)OC[C@H]1O[C@H](CC=NOC[C@@H](O)COCc2ccco2)C=C[C@@H]1OC(C)=O', 0.526),
  ('CC(C)=CCCC(C)=CCON=C1C[C@@H](O)[C@@H](O)[C@@H]2[C@@H]3C(=O)N(c4cccc(Oc5ccccc5)c4)C(=O)[C@@H]3CC[C@H]12', 0.364),
  ('C#CCCCON=C1[C@H]2CCn3c(=O)n([C@@H](CC)c4ccccc4)c(=O)n3[C@H]2[C@H](O)[C@@H]2O[C@H]12', 0.114),
  ('COc1ccc(-c2cnnc(CCCn3ccnc3-c3ccccc3)n2)cc1', 1.39),
  ('CC(C)=NOC(C)CN1CCCCc2nc(C)c(C)cc21 (stereo not given)', 0.734),
  ('CC(C)[C@@H](OCc1ccccc1)[C@H](C)C=NOC[C@@H](O)[C@H]1O[C@@H]2OC(C)(C)O[C@@H]2[C@H]1O', 2.33),
  ('O=C(NN=C1C[C@@H](O)[C@@H](O)[C@@H]2[C@@H]3C(=O)N(Cc4ccc5c(c4)OCO5)C(=O)[C@@H]3CC[C@@H]12)OCc1ccccc1', 0.921);

---

# tested.target: Albumin (Bos taurus) (UniProt P02769)
# Sequence (P02769 whole entry, looked up): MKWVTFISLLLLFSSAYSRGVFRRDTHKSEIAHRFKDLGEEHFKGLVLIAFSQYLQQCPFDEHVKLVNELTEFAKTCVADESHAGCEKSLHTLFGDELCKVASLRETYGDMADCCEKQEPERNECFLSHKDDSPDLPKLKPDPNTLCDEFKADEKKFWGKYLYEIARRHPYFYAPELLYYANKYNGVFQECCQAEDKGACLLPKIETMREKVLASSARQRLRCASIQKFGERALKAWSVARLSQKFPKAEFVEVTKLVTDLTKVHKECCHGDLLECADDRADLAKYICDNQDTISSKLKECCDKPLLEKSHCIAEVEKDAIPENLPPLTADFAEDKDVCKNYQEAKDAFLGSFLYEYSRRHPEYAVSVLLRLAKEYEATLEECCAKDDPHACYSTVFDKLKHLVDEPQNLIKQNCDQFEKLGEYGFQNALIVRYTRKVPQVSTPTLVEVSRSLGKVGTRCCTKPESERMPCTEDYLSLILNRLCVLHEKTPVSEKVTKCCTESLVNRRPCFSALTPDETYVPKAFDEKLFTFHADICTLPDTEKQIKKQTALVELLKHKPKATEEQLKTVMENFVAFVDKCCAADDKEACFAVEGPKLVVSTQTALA
# test: bovine serum albumin binders on microarray, profiling panel, artefact control for SMM control protein annotation, biochemical, small-molecule microarray, Alexa647 label, 635/667 nm fluorescence (AID 1118);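 also: score merges 667 nm emission intensity and signal-to-noise per printed compound spot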
# measurement.setup: BSA-A647 binding, fluorescence 635 nm, higher = more signal
The label depends only on composite z-score: t if it is at least 0.5, f if it is smaller.

INSERT INTO results (molecule, label) VALUES
  ('CCN1C(=O)[C@H]2[C@H]3[C@H](O)[C@H](O)CC(=NOCC[C@@H]4C=C[C@H](OC(C)=O)[C@@H](COC(C)=O)O4)[C@@H]3CC[C@H]2C1=O', 't'),
  ('CC(CCN1CCCc2nc(C)c(C)cc21)=NO[C@H](C)c1cn([C@@H]2COC[C@H]2O)nn1', 'f'),
  ('CON=C(C)CCC(=O)OC[C@H]1O[C@H](C#Cc2ccccc2)C=C[C@@H]1Oc1ccc(C)cc1', 'f'),
  ('COC(=O)[C@H](C)NC(=O)CCC1CC(OC(=O)NCc2cccc3ccccc23)CC2(CCCC(COC(=O)NCCC(C)C)O2)O1 (some centres undefined)', 'f'),
  ('CCOC(=O)[C@H](Cc1ccccc1)NC(=O)CCC1CC(OC(=O)NCc2ccc3c(c2)OCO3)CC2(CCCC(COC(=O)NCCCN3CCCC3=O)O2)O1 (some centres undefined)', 't'),
  ('COC(=O)[C@H](C)NC(=O)CCC1CC(OC(=O)NCc2cccc3ccccc23)CC2(CCCC(COC(=O)NCc3cccc(C(F)(F)F)c3)O2)O1 (some centres undefined)', 't'),
  ('COC(=O)[C@H](C)NC(=O)CCC1CC(OC(=O)NCc2cccc3ccccc23)CC2(CCCC(COC(=O)NCc3ccccc3)O2)O1 (some centres undefined)', 'f'),
  ('CCN1C(=O)[C@H]2[C@H]3[C@H](O)[C@H](O)CC(=NOC[C@@H](O)[C@H]4O[C@@H]5OC(C)(C)O[C@@H]5[C@H]4O)[C@@H]3CC[C@H]2C1=O', 'f'),
  ('O=C1[C@H]2CCn3c(=O)n(-c4ccccc4)c(=O)n3[C@H]2[C@H](O)[C@@H]2O[C@H]12', 'f'),
  ('COC(=O)[C@H](C)NC(=O)CCC1CC(OC(=O)NCCc2ccc(F)cc2)CC2(CCCC(COC(=O)NCCOc3ccccc3)O2)O1 (some centres undefined)', 't'),
  ('CCN1C(C)=C(C(=O)OC)[C@@H](c2ccccc2)N2C(=O)[C@](O)(C(=O)OC)CC(C(C)=O)=C12', 'f'),
  ('CCOC(=O)[C@H](CC(C)C)NC(=O)CCC1CC(OC(=O)NCc2ccc3c(c2)OCO3)CC2(CCCC(COC(=O)NCCOC)O2)O1 (some centres undefined)', 'f'),
  ('COc1ccc(O[C@H]2C=C[C@@H](c3ccccc3)O[C@@H]2COC(=O)NCc2cccc3ccccc23)cc1', 'f'),
  ('COc1ccc(O[C@H]2C=C[C@@H](c3ccccc3)O[C@@H]2COC(=O)CCC(C)=NOC[C@@H](O)COCc2ccco2)cc1', 'f'),
  ('CC(C)(C)N1C(=O)[C@H]2[C@H]3[C@H](O)[C@H](O)CC(=NOC[C@@H](O)COCc4ccco4)[C@@H]3CC[C@H]2C1=O', 't'),
  ('C=CCOCC1CN2[C@@H](CC[C@@H](C)[C@@H]2c2ccc(Br)cc2)C(=O)O1 (some centres undefined)', 'f'),
  ('CC1(C)O[C@H]2O[C@H]([C@H](O)CON=C3[C@H]4CCn5c(=O)n(-c6ccccc6)c(=O)n5[C@H]4[C@H](O)[C@@H]4O[C@H]34)[C@H](O)[C@H]2O1', 't'),
  ('CC(C)(C)N1C(=O)[C@H]2[C@H]3[C@H](O)[C@H](O)CC(=NNC(=O)OCc4ccccc4)[C@@H]3CC[C@H]2C1=O', 'f'),
  ('O=C(NN=C1C[C@@H](O)[C@@H](O)[C@@H]2[C@@H]3C(=O)N(c4ccc(F)cc4F)C(=O)[C@@H]3CC[C@H]12)OCc1ccccc1', 't'),
  ('O=C1CCCC=C1C(O)c1ccc([N+](=O)[O-])cc1 (centres undefined)', 'f'),
  ('CCOC(=O)CCN1C(=O)[C@H]2[C@@H]3C(=CC[C@H]2C1=O)C(=O)[C@H]1O[C@H]1[C@H]3O', 'f'),
  ('CC(C)[C@@H](OCc1ccccc1)[C@H](C)CON=C1[C@H]2CCn3c(=O)n(-c4ccccc4)c(=O)n3[C@H]2[C@H](O)[C@@H]2O[C@H]12', 't'),
  ('CSCC[C@@H]1NC(=O)CC=C[C@@H](C)COC(=O)[C@H](C)COC1=O', 'f'),
  ('CC(C)=CCCC(C)=CCON=C1C[C@@H](O)[C@@H](O)[C@@H]2[C@@H]3C(=O)N(c4cccc(Oc5ccccc5)c4)C(=O)[C@@H]3CC[C@H]12', 't'),
  ('COc1ccc(COC(=O)NN=C2C[C@@H](O)[C@@H](O)[C@@H]3[C@@H]4C(=O)N(c5cccc(Oc6ccccc6)c5)C(=O)[C@@H]4CC[C@H]23)cc1', 't'),
  ('COC(=O)[C@H](C)NC(=O)CC=C[C@@H](C)[C@@H]1C=C[C@H](O)[C@@H](CO)O1', 'f'),
  ('O=C(NN=C1C[C@@H](O)[C@@H](O)[C@@H]2[C@@H]3C(=O)N(Cc4ccccc4)C(=O)[C@@H]3CC[C@H]12)OCc1ccccc1', 'f'),
  ('CC(=O)OC[C@H]1O[C@H](CCON=C(C)CCN2CCCc3nc(C)c(C)cc32)C=C[C@@H]1OC(C)=O', 'f');
